- target under test: Dihydroorotate dehydrogenase (quinone), mitochondrial (Plasmodium falciparum (isolate 3D7)) (UniProt Q08210)
- Sequence (Q08210 whole entry, looked up): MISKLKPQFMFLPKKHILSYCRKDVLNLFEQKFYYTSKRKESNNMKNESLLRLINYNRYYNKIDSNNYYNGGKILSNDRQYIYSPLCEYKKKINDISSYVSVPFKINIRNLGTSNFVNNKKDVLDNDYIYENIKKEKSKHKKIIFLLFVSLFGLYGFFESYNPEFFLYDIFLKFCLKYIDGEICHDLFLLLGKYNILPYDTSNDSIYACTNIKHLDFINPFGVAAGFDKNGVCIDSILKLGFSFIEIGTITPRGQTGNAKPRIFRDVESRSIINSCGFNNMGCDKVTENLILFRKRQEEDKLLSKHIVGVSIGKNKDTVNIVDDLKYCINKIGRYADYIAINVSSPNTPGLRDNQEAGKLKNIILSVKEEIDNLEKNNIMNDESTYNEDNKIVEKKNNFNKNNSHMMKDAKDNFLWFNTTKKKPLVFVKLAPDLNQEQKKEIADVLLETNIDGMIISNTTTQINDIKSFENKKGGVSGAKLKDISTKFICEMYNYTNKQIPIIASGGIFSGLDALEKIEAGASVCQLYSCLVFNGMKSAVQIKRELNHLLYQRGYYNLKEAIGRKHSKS
- test name: inhibition of P. falciparum DHODH – biochemical, C-terminal His tag, absorbance 600 nm, primary screen (AID 1175);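 note: recombinant parasite enzyme with a five histidine tag at its C terminus; test concentration not given here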
- details: PfDHODH enzyme, DCIP absorbance 600 nm, called active from +8 up or from −8 down
Active and inactive are the calls of the source.
Your response should consist of one outcome taken from yes (active), no (inactive)

input: Which outcome was assigned to `Cc1ccccc1/C=C/C=O` in this test?
output: no

input: Recorded test outcome, item `COc1ccc([Si](C)(C)[C@H]2[C@H](CC(=O)N(CCO)Cc3ccccc3)O[C@@]3(C(=O)N(Cc4cccc(N5C(=O)c6cccc7cccc5c67)c4)c4ccccc43)[C@@H]2C)cc1`
output: no

input: Record request — test call for `COC(=O)[C@@]1(Cc2ccc(F)cc2)[C@H]2c3cc(C(=O)N4CCCC4)n(CCc4ccc(OC)c(Br)c4)c3C[C@H]2CN1C(=O)c1ccccc1`
output: no

input: # lookup: test call for `COCCCNC(=O)[C@@]1(Cc2ccccc2I)c2ccccc2C(=O)N(Cc2ccccc2)[C@H]1c1ccc(CO)cc1`
output: no

input: What call does the record list for `COCCn1c(C(=O)N2CCCC2)cc2c1C[C@H]1CN(C(=O)c3ccccc3)[C@@](Cc3ccc(OC)cc3)(C(=O)OC)[C@@H]21` ?
output: no

input: Outcome? `CCOC(=O)C=Cc1cccc(OC)c1O`
output: no

input: Recorded test outcome, item `COC(=O)[C@@]1(Cc2ccccc2)[C@H]2c3cc(C(=O)N(C)C)n(Cc4ccccc4)c3C[C@H]2CN1C(=O)c1ccccc1`
output: no

input: Dear colleague, could you share the recorded outcome for `Cc1ccc(S[C@]2(C(=O)NCc3ccccc3)CC(=O)N(Cc3cc(C(F)(F)F)cc(C(F)(F)F)c3)[C@@H]2c2ccc(CO)cc2)cc1` when you have a moment?
output: no

input: Could you kindly confirm the outcome this assay logged for `COc1ccc([Si](C)(C)[C@H]2[C@H](CC(=O)N3CCC[C@H]3CO)O[C@@]3(C(=O)N(Cc4cccc(N5CCC5=O)c4)c4ccccc43)[C@@H]2C)cc1` ?
output: no

input: Outcome? `Cc1ccc([C@H]2C(C(=O)O)=C[C@@H](C(C)C)N2S(=O)(=O)c2ccc(C)cc2)cc1`
output: no

input: Which outcome did this test record for the compound `COC(=O)c1nc2oc1CC[C@@H](CO)NC(=O)N(C)Cc1cn(nn1)C[C@H](Cc1ccccc1)NC2=O` ?
output: no

input: What call does the record list for `O=c1cccc(-c2ccccc2)o1` ?
output: no

input: I'd appreciate the recorded outcome for `CC(C)[Si]1(C(C)C)O[C@@H](c2ccccc2)c2cc(-c3ccc(-c4ccc(Cl)c(Cl)c4)o3)nc(CCc3ccccc3)c21` from this test.
output: no

input: Tell me the assay call for `COCCOC(=O)N1C(=O)[C@@]2(c3cc(C#CC4=CCCCC4)ccc31)[C@H](c1ccc(OCCO)cc1)N1[C@H](c3ccccc3)[C@H](c3ccccc3)OC(=O)[C@H]1[C@@H]2C(=O)Nc1nc2ccccc2s1` please.
output: no

input: Could you kindly confirm the outcome this assay logged for CC(C)C(CO)N1C(=O)[C@@H]2[C@H]3C(=O)OCC=C[C@H]3OC23C=CCN(c2ccc4ccccc4c2)C(=O)[C@@H]13 (stereo partly drawn) ?
output: no

input: Returns: the outcome recorded for `CC(=O)NCCCC[C@@H]1NC(=O)[C@@H]2C[C@H](C(=O)NCc3ccc(F)cc3)[C@H](c3ccc(O)cc3)N2C1=O` in this assay.
output: no

input: Record request — test call for `C=C(/C(=C/C[C@@H](OC(C)=O)c1ccc(CO)o1)c1cnc2ccccc2c1)C(C)C`
output: yes

input: Any idea what this test logged for `C=CC[C@@]1(C(=O)NCc2ccccc2)N=C(c2ccc(OCCCO)cc2)O[C@@H]1c1ccccc1CN=[N+]=[N-]` ?
output: no

input: What outcome does the record of this test show for `COCCOC(=O)N1C(=O)[C@@]2(c3cc(C#CC4(O)CCCCCC4)ccc31)[C@H](c1ccc(O)cc1)N1[C@H](c3ccccc3)[C@H](c3ccccc3)OC(=O)[C@H]1[C@@H]2C(=O)N1CCc2cc(OC)c(OC)cc2C1` ?
output: no

input: Recorded test outcome, item `COc1ccccc1CN1C(=O)c2ccccc2[C@](Cc2ccccc2I)(C(=O)NCc2ccccc2)[C@@H]1c1ccc(CO)cc1`
output: no

input: What classification did CCOC(=O)N1C(c2ccc(OCCCO)cc2)=NC(C(=O)OC)N1C(=O)OCC (stereo not drawn) end up with in this test?
output: no

input: Name the outcome recorded for `COc1ccc(C#Cc2ccc3c(c2)[C@]2(C(=O)N3)[C@H](c3ccc(OCCO)cc3)N3[C@H](c4ccccc4)[C@H](c4ccccc4)OC(=O)[C@H]3[C@@H]2C(=O)Nc2nc3ccccc3s2)cc1` in the assay.
output: no

input: Given `C=C(CCCC)C(=O)CC[C@H](OC(=O)c1ccccc1-c1ccccc1C(=O)O)c1ccc(CO)o1` , state the outcome it received in this test.
output: no

input: Any idea what this test logged for CC(C)(C)OC(=O)CC[C@@]1(C(=O)NCC(O)CO)N=C(c2ccc(OCCCO)cc2)O[C@@H]1c1ccccc1 (stereo partly drawn) ?
output: no

input: Just curious, what result did `OCCCc1cc[n+](Cc2cccc(OC(F)(F)F)c2)cc1` get here?
output: no

input: Fill in: this test's call for `C=CCOC(=O)[C@H]1[C@@H]2C(=O)O[C@@H](c3ccccc3)[C@@H](c3ccccc3)N2[C@@H](c2ccc(OCCOC(=O)[C@@H]3C[C@@H]4C(=O)NCC(=O)N4[C@@H]3c3ccc(O)cc3)cc2)[C@]12C(=O)Nc1ccc(I)cc12` is ___
output: no

input: Can you look up the reported call for `C=CCOC(=O)[C@@H]1[C@H]2C(=O)O[C@H](c3ccccc3)[C@H](c3ccccc3)N2[C@H](c2ccc(OCCOC(=O)[C@H]3C[C@H]4C(=O)N[C@@H](Cc5ccccc5)C(=O)N4[C@H]3c3ccc(O)cc3)cc2)[C@@]12C(=O)Nc1ccc(I)cc12` for me?
output: yes

input: Status in this test for C=CCC(OC(C)=O)[C@@H]1[C@@H](N(Cc2cc3ccccc3o2)C(=O)c2ccc(-c3ccccc3)cc2)c2cc(OCCCO)ccc2N1C(=O)Cc1ccc2ccccc2c1 (stereo partly drawn) ?
output: no
